# Estrogen receptor beta (Homo sapiens, UniProt Q92731): pIC50 values follow
# Sequence (Q92731 whole entry): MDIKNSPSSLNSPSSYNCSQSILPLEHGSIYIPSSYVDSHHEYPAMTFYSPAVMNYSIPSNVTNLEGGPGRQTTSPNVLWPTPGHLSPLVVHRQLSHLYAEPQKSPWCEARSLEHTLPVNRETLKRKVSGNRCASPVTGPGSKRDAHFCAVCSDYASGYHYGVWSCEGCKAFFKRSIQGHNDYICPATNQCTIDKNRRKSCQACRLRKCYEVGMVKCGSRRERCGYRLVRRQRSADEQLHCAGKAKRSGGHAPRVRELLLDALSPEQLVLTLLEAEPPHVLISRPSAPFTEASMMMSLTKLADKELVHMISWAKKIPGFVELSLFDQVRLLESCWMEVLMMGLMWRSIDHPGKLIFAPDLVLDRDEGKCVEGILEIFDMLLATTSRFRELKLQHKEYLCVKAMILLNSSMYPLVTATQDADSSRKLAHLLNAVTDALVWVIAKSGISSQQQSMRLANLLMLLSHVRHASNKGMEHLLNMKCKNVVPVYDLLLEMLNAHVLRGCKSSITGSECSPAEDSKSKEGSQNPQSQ
Give bare numbers, as −log10 of the molar value.

1. C=C[C@]12CCC(c3ccccc3)=CC1=CC[C@H]1[C@@H]3CC[C@H](O)[C@@]3(C)CC[C@@H]12 ... 5.75
2. C#CC1(O)CC[C@H]2[C@@H]3CC=C4C=C(C)CC[C@]4(C=C)[C@H]3CC[C@@]21C (single isomer, unassigned) ... 7.14

pIC50 measured on C=C[C@]12CCC(Cl)=CC1=CC[C@H]1[C@@H]3CC[C@H](O)[C@@]3(C)CC[C@@H]12 = 7.19

====

What IC50 was measured for each of the following?
# targetOfAssay: Estrogen receptor beta (Homo sapiens)
Give bare numbers, in µM.

1. C=C1C=C2CC[C@H]3[C@@H]4CC[C@H](O)[C@@]4(C)CC[C@@H]3[C@@]2(C)CC1 ... 0.034
2. C=C[C@]12CCC(=C)C=C1CC[C@H]1[C@@H]3CC[C@H](O)[C@@]3(C)CC[C@@H]12 ... 0.12
3. CC1=CC2=CC[C@H]3[C@@H]4CC[C@H](O)[C@@]4(C)CC[C@@H]3[C@@]2(C)CC1 ... 0.0094

IC50 measured on C=C[C@]12CCC(C)=CC1=CC[C@@H]1[C@@H]2CC[C@@]2(C)[C@H]1CC[C@]2(C)O = 0.053

====

# Estrogen receptor (Homo sapiens, UniProt P03372): pIC50 values follow
Give bare numbers, as −log10 of the molar value.

Some solved entries appear below for comparison.
1. C=C[C@]12CCC(CC)=CC1=CC[C@H]1[C@@H]3CC[C@H](O)[C@@]3(C)CC[C@@H]12 ... 5.51
2. C#CC1(O)CC[C@H]2[C@@H]3CC=C4C[C@@H](O)CC[C@]4(C=C)[C@H]3CC[C@@]21C (single isomer, unassigned) ... 6.82

pIC50 measured on C=C[C@]12CCC(C)=CC1=CC[C@H]1[C@@H]3CC[C@H](O)[C@@]3(C)CC[C@@H]12 = 5.84

====

# targetOfAssay: Androgen receptor (Homo sapiens, UniProt P10275)
# Sequence (P10275 whole entry): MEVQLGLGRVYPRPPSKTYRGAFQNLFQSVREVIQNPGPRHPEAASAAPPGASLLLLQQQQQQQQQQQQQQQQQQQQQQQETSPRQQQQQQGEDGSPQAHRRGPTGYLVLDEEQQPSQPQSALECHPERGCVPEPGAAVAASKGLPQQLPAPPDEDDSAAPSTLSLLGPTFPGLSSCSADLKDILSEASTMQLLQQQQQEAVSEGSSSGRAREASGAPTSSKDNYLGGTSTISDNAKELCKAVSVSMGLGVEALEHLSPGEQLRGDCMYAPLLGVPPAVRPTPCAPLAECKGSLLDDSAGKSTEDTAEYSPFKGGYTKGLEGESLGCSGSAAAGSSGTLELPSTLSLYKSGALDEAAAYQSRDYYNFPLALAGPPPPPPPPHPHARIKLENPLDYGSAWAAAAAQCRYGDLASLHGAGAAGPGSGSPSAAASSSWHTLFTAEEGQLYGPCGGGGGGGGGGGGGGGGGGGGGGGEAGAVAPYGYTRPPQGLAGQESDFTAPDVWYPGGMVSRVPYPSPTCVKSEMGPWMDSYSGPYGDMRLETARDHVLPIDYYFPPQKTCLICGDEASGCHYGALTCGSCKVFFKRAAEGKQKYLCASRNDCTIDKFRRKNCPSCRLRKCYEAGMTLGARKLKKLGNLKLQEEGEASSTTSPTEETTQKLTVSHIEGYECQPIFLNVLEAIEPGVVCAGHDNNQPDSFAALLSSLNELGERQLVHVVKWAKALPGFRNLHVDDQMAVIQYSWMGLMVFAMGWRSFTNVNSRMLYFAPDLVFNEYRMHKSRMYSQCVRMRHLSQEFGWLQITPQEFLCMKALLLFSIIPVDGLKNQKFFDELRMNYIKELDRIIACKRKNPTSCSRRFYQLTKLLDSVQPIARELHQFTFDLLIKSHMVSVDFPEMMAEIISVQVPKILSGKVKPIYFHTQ
// assign yes if IC50 falls strictly below 2000 nM, else no (ties count as no)

Some solved entries appear below for comparison.
1) C=C[C@]12CCC(c3ccccc3)=CC1=CC[C@H]1[C@@H]3CC[C@H](O)[C@@]3(C)CC[C@@H]12 ... no
2) C#CC1(O)CC[C@H]2[C@@H]3CC=C4C=C(C)CC[C@]4(C=C)[C@H]3CC[C@@]21C (single isomer, unassigned) ... yes

Turning now to a further record.
Below 2000 nM on IC50? Entry C=C[C@]12CCC(=C)C=C1CC[C@H]1[C@@H]3CC[C@H](O)[C@@]3(C)CC[C@@H]12
yes

====

# Estrogen receptor (Homo sapiens, UniProt P03372): EC50 values follow

Some solved entries appear below for comparison.
1. C=C[C@]12CCC(C)=CC1=CC[C@@H]1[C@@H]2CC[C@@]2(C)[C@H]1CC[C@]2(C)O ... > 1000 nM
2. C=C[C@]12CC[C@](C)(O)CC1=CC[C@H]1[C@@H]3CC[C@H](O)[C@@]3(C)CC[C@@H]12 ... > 1000 nM
3. C=C[C@]12CCC(=C)C=C1CC[C@H]1[C@@H]3CC[C@H](O)[C@@]3(C)CC[C@@H]12 ... 430 nM
4. C=C[C@]12CCC(c3ccccc3)=CC1=CC[C@H]1[C@@H]3CC[C@H](O)[C@@]3(C)CC[C@@H]12 ... > 1000 nM
5. C#CC1(O)CC[C@H]2[C@@H]3CC=C4C=C(C)CC[C@]4(C=C)[C@H]3CC[C@@]21C (single isomer, unassigned) ... 490 nM
6. C=C[C@]12CC[C@@](C)(O)CC1=CC[C@H]1[C@@H]3CC[C@H](O)[C@@]3(C)CC[C@@H]12 ... > 1000 nM

# per-item lookup of EC50; items listed below
1. C=C[C@]12CCC(Cl)=CC1=CC[C@H]1[C@@H]3CC[C@H](O)[C@@]3(C)CC[C@@H]12
2. C#CC1(O)CC[C@H]2[C@@H]3CC=C4C[C@@H](O)CC[C@]4(C=C)[C@H]3CC[C@@]21C (single isomer, unassigned)

["820 nM", "130 nM"]

# per-item lookup of EC50; items listed below
1. C=C[C@]12CCC(C)=CC1=CC[C@H]1[C@@H]3CC[C@H](O)[C@@]3(C)CC[C@@H]12
2. C=C[C@]12CC[C@H](O)CC1=CC[C@@H]1[C@@H]2CC[C@@]2(C)[C@H]1CC[C@]2(C)O
3. C=C[C@]12CCC(CC)=CC1=CC[C@H]1[C@@H]3CC[C@H](O)[C@@]3(C)CC[C@@H]12

["> 1000 nM", "> 1000 nM", "> 1000 nM"]

====

# targetOfAssay: Estrogen receptor (Homo sapiens, UniProt P03372)
# Sequence (P03372 whole entry): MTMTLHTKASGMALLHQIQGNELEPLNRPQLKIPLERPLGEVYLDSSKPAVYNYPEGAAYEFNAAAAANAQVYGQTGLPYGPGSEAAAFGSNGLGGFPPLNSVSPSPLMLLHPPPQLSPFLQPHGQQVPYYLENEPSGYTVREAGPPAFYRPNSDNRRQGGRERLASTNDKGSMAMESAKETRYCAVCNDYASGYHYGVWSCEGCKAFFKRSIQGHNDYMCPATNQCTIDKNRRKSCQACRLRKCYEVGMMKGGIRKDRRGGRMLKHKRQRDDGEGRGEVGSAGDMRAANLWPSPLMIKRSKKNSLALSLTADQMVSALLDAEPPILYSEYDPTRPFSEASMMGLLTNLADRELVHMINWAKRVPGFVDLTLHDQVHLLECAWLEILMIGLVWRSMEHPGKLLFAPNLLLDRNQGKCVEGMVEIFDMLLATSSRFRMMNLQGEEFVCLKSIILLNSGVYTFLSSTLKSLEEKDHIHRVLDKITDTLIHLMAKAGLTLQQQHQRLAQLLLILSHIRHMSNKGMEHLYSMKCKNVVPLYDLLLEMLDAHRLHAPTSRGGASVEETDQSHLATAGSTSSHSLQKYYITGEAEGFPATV
endpointName: IC50 (µM)
Numbers only, in µM.

1) C=C[C@]12CCC(Cl)=CC1=CC[C@H]1[C@@H]3CC[C@H](O)[C@@]3(C)CC[C@@H]12 ... 5.74
2) C=C[C@]12CC[C@H](O)CC1=CC[C@@H]1[C@@H]2CC[C@@]2(C)[C@H]1CC[C@]2(C)O ... 1.05
3) C=C[C@]12CC[C@](C)(O)CC1=CC[C@H]1[C@@H]3CC[C@H](O)[C@@]3(C)CC[C@@H]12 ... 5.3

Please turn your attention to the following entry.
IC50 measured on C=C[C@]12CCC(C)=CC1=CC[C@@H]1[C@@H]2CC[C@@]2(C)[C@H]1CC[C@]2(C)O = 4.38
